target-or-system: Tyrosine-protein kinase receptor UFO (Homo sapiens) (UniProt P30530)
Sequence (P30530 whole entry): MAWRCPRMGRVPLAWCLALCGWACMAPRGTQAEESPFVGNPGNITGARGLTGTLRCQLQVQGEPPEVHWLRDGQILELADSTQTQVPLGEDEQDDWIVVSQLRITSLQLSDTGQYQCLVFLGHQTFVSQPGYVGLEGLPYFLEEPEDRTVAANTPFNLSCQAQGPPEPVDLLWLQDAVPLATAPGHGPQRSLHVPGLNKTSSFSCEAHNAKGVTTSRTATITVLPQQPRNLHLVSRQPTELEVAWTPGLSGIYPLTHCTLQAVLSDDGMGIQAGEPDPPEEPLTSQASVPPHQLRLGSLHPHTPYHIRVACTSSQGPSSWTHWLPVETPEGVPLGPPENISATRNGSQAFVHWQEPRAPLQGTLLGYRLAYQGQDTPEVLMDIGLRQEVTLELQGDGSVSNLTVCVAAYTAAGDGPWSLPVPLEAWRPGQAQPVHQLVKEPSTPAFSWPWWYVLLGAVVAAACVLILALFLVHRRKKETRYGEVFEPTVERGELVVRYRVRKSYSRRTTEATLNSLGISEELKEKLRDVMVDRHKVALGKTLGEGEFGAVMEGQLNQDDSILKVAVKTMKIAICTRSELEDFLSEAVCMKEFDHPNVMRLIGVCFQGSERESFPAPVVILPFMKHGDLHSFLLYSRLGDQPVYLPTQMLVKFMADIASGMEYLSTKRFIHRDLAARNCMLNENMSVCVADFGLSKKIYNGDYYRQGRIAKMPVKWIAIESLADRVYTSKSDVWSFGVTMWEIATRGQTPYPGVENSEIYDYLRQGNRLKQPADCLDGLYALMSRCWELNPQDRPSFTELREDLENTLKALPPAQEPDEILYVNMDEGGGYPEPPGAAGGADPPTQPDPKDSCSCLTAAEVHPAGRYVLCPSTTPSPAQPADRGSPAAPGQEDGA
assay-summary: Inhibition of AXL (unknown origin) at 1 uM preincubated for 15 mins followed by substrate and ATP addition and measured after 3 hrs by ADP-Glo kinase assay relative to control
condition-set: time 195.0 min
Measured inhibition values are reported for all entries that follow.
A number alone suffices; assume %.

Worked examples follow.
1) Nc1cccc(-c2c(-c3ccccc3)oc3ncnc(Oc4ccc(NC(=O)C5(C(=O)Nc6ccc(F)cc6)CC5)cc4)c23)c1; 100
2) O=C(Nc1ccc(F)cc1)C1(C(=O)Nc2ccc(Oc3ncnc4oc(-c5ccccc5)c(-c5ccccc5)c34)cc2)CC1; 98

inhibition measured on Nc1cccc(-c2c(-c3ccccc3)oc3ncnc(Oc4ccc(NC(=S)NC(=O)Cc5ccccc5)cc4)c23)c1 = 95
